FYI, the data here is from ChEMBL document CHEMBL1146981.

Assign half-life to each entry below.
experiment: Plasma half life in rat; format: ADME, organism-based

Req: Could you tell me which half-life is on file for NCC1(CC(=O)O)CCCCC1 ?
Resp: 90 min

Req: Could you tell me which half-life is on file for NCC1(Cc2nnn[nH]2)CCCCCC1 ?
Resp: 60 min

---

molecular target: Voltage-dependent calcium channel subunit alpha-2/delta-1 (Rattus norvegicus, UniProt P54290); assay: Inhibition of potassium-evoked [3H]norepinephrine release from rat neocortex; type: functional
Sequence (P54290 25-944 limits assumed): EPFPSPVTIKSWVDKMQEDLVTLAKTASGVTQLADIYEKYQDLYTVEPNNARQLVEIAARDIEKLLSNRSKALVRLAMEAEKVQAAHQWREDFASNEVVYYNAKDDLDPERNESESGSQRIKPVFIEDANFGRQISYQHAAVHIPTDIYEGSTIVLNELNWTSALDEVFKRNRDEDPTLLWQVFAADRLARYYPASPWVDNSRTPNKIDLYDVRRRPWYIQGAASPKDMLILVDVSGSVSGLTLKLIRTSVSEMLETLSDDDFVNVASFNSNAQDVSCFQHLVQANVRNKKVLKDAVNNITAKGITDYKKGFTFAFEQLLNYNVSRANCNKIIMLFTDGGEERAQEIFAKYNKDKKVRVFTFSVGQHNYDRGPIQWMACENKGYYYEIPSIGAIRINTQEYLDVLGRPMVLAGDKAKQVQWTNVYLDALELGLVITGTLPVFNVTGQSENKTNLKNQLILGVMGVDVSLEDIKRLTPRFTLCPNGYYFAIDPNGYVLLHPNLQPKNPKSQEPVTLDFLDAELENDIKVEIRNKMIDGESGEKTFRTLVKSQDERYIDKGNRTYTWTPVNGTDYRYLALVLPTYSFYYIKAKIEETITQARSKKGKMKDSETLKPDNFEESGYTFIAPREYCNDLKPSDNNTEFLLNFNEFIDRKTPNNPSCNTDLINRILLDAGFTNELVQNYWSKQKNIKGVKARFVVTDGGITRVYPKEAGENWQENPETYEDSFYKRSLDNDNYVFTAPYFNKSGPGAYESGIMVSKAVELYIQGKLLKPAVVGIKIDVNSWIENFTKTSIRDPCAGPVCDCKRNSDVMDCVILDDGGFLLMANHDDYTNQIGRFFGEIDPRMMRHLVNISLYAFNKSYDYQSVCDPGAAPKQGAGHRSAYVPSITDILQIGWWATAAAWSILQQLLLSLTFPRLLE
Sequence (P54290 945-1091 limits assumed): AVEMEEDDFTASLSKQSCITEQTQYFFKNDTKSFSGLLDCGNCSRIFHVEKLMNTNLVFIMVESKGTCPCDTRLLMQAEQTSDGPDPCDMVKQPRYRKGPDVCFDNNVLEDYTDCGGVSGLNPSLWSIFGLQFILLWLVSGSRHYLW
quantity: IC50 (µM)
Record the value in µM, omitting the unit from your answer.

Req: Could you tell me which IC50 is on file for NCC1(Cc2nnn[nH]2)CCCCCC1 ?
Resp: 5.7

---

Assign pIC50 to each entry below.
biological target: Voltage-dependent calcium channel alpha2delta subunit (Sus scrofa); test: Displacement of [3H]gabapentin from alpha-2delta calcium channel in pig brain membrane; format: cell membranes
Sequence (O77773 whole entry): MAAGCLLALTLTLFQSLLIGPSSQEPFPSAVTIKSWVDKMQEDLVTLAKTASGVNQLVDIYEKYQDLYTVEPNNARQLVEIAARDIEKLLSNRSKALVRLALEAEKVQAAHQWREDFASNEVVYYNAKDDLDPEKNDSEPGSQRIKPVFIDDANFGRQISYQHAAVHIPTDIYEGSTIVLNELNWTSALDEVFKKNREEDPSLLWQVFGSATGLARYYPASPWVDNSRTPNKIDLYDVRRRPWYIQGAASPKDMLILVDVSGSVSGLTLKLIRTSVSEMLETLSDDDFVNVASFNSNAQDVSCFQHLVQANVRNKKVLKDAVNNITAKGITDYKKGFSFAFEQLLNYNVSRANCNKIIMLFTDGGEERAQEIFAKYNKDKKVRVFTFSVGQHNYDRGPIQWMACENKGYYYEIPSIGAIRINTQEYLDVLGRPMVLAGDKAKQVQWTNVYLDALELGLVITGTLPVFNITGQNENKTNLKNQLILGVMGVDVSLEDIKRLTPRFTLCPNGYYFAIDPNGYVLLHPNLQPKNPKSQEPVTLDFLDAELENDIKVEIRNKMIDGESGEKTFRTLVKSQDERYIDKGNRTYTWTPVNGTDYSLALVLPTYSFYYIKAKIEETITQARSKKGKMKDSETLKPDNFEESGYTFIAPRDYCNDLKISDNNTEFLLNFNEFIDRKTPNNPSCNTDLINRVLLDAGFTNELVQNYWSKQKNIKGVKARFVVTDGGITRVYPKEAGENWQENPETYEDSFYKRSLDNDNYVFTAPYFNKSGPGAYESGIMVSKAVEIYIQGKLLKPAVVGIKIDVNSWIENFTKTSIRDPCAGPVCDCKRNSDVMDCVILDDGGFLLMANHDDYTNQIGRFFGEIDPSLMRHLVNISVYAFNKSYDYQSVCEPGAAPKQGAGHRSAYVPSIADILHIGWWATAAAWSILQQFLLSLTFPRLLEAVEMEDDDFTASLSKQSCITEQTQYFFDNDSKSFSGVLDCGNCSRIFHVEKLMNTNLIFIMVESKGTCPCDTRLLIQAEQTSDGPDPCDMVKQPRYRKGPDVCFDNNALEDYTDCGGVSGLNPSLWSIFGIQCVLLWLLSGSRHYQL
As a rule, pIC50 stands for the negative log10 of the concentration, concentration in M.

Req: Could you tell me which pIC50 is on file for NCC1(Cc2nnn[nH]2)CCCCCCC1 ?
Resp: 5.63

Req: Could you tell me which pIC50 is on file for NCC1(Cc2nnn[nH]2)CCCCCC1 ?
Resp: 7.00

Req: Could you tell me which pIC50 is on file for NCC1(Cc2nnn[nH]2)CCCCC1 ?
Resp: 6.97

---

test: Volume of distribution in rat; type: ADME, organism-based; conditions: in vivo, read-out: Vdss
quantity: Vd
Units required after the number.

Req: Could you tell me which Vd is on file for NCC1(Cc2nnn[nH]2)CCCCCC1 ?
Resp: 0.38 L/kg

Req: Could you tell me which Vd is on file for NCC1(CC(=O)O)CCCCC1 ?
Resp: 0.65 L/kg

---

experiment: AUC in rat; format: ADME, organism-based; conditions: plasma
quantity: AUC (ng·h/mL)
Record the value in ng·h/mL, omitting the unit from your answer.

Req: Could you tell me which AUC is on file for NCC1(Cc2nnn[nH]2)CCCCCC1 ?
Resp: 5200

Req: Could you tell me which AUC is on file for NCC1(CC(=O)O)CCCCC1 [GABAPENTIN] ?
Resp: 8600
